Test: Human HepG2 cell viability assay in 384 well format
Format: toxicity, cell-based
Set-up: dose 125 nL, time 70.5 hour; concentration not given beside the values
Conditions: HepG2 cells, read-out: Inhibition

{"molecule": "COc1ccc(-c2cc(C3CCN(C(C)=O)CC3)ccn2)cc1", "cytotoxicity at 70.5 h": "-7.99%"}
{"molecule": "OC(COCc1cccs1)Cn1cc(Cl)cn1 (centres undefined)", "cytotoxicity at 70.5 h": "-1.21%"}
{"molecule": "CCCc1noc(C(C)N2CCN(CCn3ccccc3=O)CC2)n1 (centres undefined)", "cytotoxicity at 70.5 h": "-2.24%"}
{"molecule": "NC(=O)C1(CNC(=O)CCc2ccc(Cl)s2)CCOCC1", "cytotoxicity at 70.5 h": "-7.77%"}
{"molecule": "Cc1ccc(-c2csc3c(=O)[nH]c(N4CCCC(C(=O)O)C4)nc23)cc1 (centres undefined)", "cytotoxicity at 70.5 h": "3.06%"}
{"molecule": "CC1Cc2ccccc2N1Cc1occc1C(=O)NCC(=O)N(C)C (centres undefined)", "cytotoxicity at 70.5 h": "-1.83%"}
{"molecule": "Cc1nc(C2CCCN(C(=O)Cn3ccccc3=O)C2)no1 (centres undefined)", "cytotoxicity at 70.5 h": "-9.54%"}
{"molecule": "COc1cc(CNC(=O)Nc2cc(C(F)(F)F)c[nH]c2=O)ccn1", "cytotoxicity at 70.5 h": "1.69%"}
{"molecule": "CN1CCN(c2ccc(NC(=O)c3ccoc3)c(C(F)(F)F)c2)CC1", "cytotoxicity at 70.5 h": "-7.05%"}
{"molecule": "CC(=O)NCCc1ccc(S(=O)(=O)N(C)C(C)CC(C)C)s1 (centres undefined)", "cytotoxicity at 70.5 h": "-7.26%"}
{"molecule": "CSCC[C@@H](CO)NC(=O)c1sc(-c2ccccc2Cl)nc1C", "cytotoxicity at 70.5 h": "-16.5%"}
{"molecule": "CCCn1ccnc1CN1CCN(C2CCOCC2)CC(C(N)=O)C1 (centres undefined)", "cytotoxicity at 70.5 h": "-10.4%"}
{"molecule": "CO[C@H]1CO[C@@]2(CCCN(C(=O)N(C)C)C2)C1", "cytotoxicity at 70.5 h": "-3.18%"}
{"molecule": "CN(Cc1nc(C(F)(F)F)cs1)C(=O)CCc1ccccn1", "cytotoxicity at 70.5 h": "-1.82%"}
{"molecule": "CN(CC(=O)Nc1nncs1)CC1CCCN1c1cccnn1 (centres undefined)", "cytotoxicity at 70.5 h": "4.97%"}
{"molecule": "CC(NC(=O)c1cc(=O)n(C)c(=O)n1C)c1ccccc1-n1cccn1 (centres undefined)", "cytotoxicity at 70.5 h": "4.9%"}
{"molecule": "Cc1cccc(-c2noc(CN3CCC(N4CCNC4=O)CC3)n2)c1", "cytotoxicity at 70.5 h": "-0.858%"}
{"molecule": "NC(=O)NC(CC(=O)NCCc1ccc(F)cc1)c1ccccc1 (centres undefined)", "cytotoxicity at 70.5 h": "1.48%"}
{"molecule": "CCn1nc(C)cc1C(=O)N1CCCN(CCCc2ccccc2)CC1", "cytotoxicity at 70.5 h": "1.03%"}
{"molecule": "O=C(Cn1cc(I)cn1)N1CCOCC1", "cytotoxicity at 70.5 h": "-3.24%"}
{"molecule": "Cc1nc(C2CCCN2C(=O)c2cnns2)no1 (centres undefined)", "cytotoxicity at 70.5 h": "-8.38%"}
{"molecule": "CCCn1cc(CN2CCC(c3[nH]ncc3S(C)(=O)=O)C2)cn1 (centres undefined)", "cytotoxicity at 70.5 h": "-7.48%"}
{"molecule": "O=C(CCC1CCCC1)NCCn1nc(C2CCNC2)c2cccnc21 (centres undefined)", "cytotoxicity at 70.5 h": "-14.1%"}
{"molecule": "CCc1[nH]c2ccc(CNc3cncc(C(=O)N(C)C)n3)cc2c1C", "cytotoxicity at 70.5 h": "-0.482%"}
